assayTarget: T1, CC128 variant of CD117 (Y259C + N260D) purified protein (human, UniProt P10721 26-520, limits assumed)
T1 construct: also called CC128-edited CD117 as purified protein
T1 sequence (P10721 26-520 Y259C/N260D limits assumed): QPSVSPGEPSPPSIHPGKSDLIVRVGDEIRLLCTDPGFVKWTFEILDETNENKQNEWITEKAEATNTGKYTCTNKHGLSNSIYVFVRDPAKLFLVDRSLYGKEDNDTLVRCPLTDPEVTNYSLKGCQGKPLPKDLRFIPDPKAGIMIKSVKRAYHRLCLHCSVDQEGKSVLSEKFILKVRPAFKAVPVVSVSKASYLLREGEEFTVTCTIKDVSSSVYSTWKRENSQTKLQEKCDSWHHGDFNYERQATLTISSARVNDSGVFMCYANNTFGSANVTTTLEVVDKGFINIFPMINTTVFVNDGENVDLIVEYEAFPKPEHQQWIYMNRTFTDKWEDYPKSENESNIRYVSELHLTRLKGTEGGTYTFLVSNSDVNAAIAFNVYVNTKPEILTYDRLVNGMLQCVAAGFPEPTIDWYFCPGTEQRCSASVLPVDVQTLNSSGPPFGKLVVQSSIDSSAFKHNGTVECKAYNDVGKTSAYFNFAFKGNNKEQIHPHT
testName: binding kinetics grade, FIGS. 55A-55C

# binder, binding result
data = [
    ("ABTx256 (antibody, human IgG1, kappa, V domains shown) VH: QVQLVQSGAAVKKPGESLKISCKGSGYRFTSYWIGWVRQMPGKGLEWMGIIYPGDSDTRYSPSFQGQVTISAGKSISTAYLQWSSLKASDTAMYYCARHGRGYDAYEGAFDIWGQGTMVTVSS VL: AIQLTQSPSSLSASVGDRVTITCRASQGISSALAWYQQKPGKAPKLLIYDASSLESGVPSRFSGSGSGTDFTLTISSLQPEDFATYYCQQTYSYPLTFGGGTKVEIKR", "no binding"),
    ("ABTx272 (antibody, human IgG1, kappa, V domains shown) VH: QVQLVQSGAAVKKPGESLKISCKGSGYRFTSYWIGWVRQMPGKGLEWMGIIYPGDSDTKYSPSFQGQVTISAGKSISTAYLQWSSLKASDTAMYYCARHGRGYDGYDGAFDIWGQGTMVTVSS VL: AIQLTQSPSSLSASVGDRVTITCRASQGISSALAWYQQKPGKAPKLLIYDASSLESGVPSRFSGSGSGTDFTLTISSLQPEDFATYYCQQVRSYPLTFGGGTKVEIKR", "no binding"),
    ("ABTx258 (antibody, human IgG1, kappa, V domains shown) VH: QVQLVQSGAAVKKPGESLKISCKGSGYRFTSYWIGWVRQMPGKGLEWMGIIYPGDSDTKYSPSFQGQVTISAGKSISTAYLQWSSLKASDTAMYYCARHGRGYDAYEGAFDIWGQGTMVTVSS VL: AIQLTQSPSSLSASVGDRVTITCRASQGISSALAWYQQKPGKAPKLLIYDASSLESGVPSRFSGSGSGTDFTLTISSLQPEDFATYYCQQVRSYPLTFGGGTKVEIKR", "no binding"),
]
